Provide the reported pIC50 of each item.
# Study target: PI3Kα H1047R (T47D cells) (Homo sapiens, UniProt P42336, H1047R)
# Construct: endogenous in cells; host or cells: T47D cells
# Sequence (P42336 whole entry H1047R): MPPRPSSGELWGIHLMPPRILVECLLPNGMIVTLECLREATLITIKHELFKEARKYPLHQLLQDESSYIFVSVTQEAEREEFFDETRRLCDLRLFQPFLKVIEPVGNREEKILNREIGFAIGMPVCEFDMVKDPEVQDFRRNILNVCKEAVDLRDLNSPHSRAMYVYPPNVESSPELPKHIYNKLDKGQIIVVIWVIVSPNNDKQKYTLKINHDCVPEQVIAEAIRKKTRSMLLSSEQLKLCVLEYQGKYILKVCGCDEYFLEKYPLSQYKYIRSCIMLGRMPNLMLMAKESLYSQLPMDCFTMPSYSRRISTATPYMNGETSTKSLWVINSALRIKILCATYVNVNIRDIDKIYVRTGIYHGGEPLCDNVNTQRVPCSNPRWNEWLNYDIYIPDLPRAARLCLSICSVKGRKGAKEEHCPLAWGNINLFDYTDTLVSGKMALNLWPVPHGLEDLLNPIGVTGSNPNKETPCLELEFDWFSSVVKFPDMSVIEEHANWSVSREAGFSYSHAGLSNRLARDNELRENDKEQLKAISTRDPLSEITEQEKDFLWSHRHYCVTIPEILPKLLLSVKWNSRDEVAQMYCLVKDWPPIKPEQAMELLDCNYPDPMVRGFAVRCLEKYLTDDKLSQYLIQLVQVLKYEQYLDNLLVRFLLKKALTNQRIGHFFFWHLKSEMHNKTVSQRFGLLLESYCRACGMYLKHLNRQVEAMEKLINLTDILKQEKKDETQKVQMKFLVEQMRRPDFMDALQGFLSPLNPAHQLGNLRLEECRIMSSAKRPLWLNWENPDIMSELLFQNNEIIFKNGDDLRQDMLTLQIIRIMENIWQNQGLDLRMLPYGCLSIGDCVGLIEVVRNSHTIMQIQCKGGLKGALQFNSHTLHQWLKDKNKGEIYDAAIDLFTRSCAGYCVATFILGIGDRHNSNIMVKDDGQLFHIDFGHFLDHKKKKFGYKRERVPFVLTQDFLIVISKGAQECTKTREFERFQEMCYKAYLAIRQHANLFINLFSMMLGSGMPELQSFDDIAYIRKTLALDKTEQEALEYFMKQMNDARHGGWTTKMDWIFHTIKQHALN
# Sequence (P27986 whole entry partner): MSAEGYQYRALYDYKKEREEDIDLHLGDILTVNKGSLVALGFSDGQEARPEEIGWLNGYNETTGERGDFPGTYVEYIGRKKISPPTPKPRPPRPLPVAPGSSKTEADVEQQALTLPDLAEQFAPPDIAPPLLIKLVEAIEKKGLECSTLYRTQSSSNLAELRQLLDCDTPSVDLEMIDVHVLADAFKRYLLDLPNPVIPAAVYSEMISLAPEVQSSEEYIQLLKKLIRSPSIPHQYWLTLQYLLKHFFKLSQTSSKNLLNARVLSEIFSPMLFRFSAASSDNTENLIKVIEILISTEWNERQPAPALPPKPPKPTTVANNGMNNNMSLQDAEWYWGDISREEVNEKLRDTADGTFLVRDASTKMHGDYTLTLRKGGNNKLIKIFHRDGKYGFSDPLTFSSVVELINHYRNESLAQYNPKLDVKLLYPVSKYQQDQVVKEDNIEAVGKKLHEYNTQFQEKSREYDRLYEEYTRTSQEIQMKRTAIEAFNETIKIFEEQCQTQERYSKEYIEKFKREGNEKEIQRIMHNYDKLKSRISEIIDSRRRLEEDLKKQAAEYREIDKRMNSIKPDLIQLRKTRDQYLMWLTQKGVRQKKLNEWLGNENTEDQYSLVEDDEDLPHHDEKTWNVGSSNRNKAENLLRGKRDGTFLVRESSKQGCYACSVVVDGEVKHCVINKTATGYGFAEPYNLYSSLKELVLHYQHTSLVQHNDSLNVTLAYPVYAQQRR
# Measurement notes: PI3Kα cellular assay: pAKT HTRF in T47D cells after EGF stimulation
# Type: cell-based
# Condition parameters: T47D cells (PI3Kα H1047R), pAKT S473 HTRF, EGF stimulation
pIC50: −log10 of the molar value.

// worked examples, pIC50 included
compound=Cc1cc([C@H](C)Nc2ccccc2C(=O)O)c2nc(-c3ccnc(C4CC4)c3)cc(=O)n2c1 study_target="PI3Kα H1047R (T47D cells) (Homo sapiens, UniProt P42336, H1047R)" obs_value="> 7.00"
compound=Cc1cc([C@@H](C)Nc2ccccc2C(=O)O)c2nc(-c3ccncc3)c(C)c(=O)n2c1 study_target="PI3Kα H1047R (T47D cells) (Homo sapiens, UniProt P42336, H1047R)" obs_value="< 5.70"
compound="Cc1cc([C@@H](C)Nc2ccccc2C(=O)O)c2nc(-c3cccc(C#N)c3)c(C)c(=O)n2c1 (single isomer, unassigned)" study_target="PI3Kα H1047R (T47D cells) (Homo sapiens, UniProt P42336, H1047R)" obs_value="> 7.00"
compound="Cc1cc(C(C)Nc2ccccc2S(N)(=O)=O)c2nc(-c3cccnc3)c(C3CC3)c(=O)n2c1 (centres unmarked)" study_target="PI3Kα H1047R (T47D cells) (Homo sapiens, UniProt P42336, H1047R)" obs_value="6.30 to 7.00"
compound="Cc1cc(C(C)Nc2ccccc2C(=O)O)c2nc(-c3ccncc3)c(C)c(=O)n2c1 (centres unmarked)" study_target="PI3Kα H1047R (T47D cells) (Homo sapiens, UniProt P42336, H1047R)" obs_value="> 7.00"

Would you mind listing pIC50 for each of the following compounds?
1. Cc1cc([C@@H](C)Nc2ccccc2-c2ccnnc2)c2nc(N3Cc4ccccc4C3)c(C3CC3)c(=O)n2c1 [Compound 874]
2. Cc1cc([C@H](C)Nc2ccccc2C(=O)O)c2nc(-c3cnc4cc(O)ccn34)cc(=O)n2c1

Resp:
1. < 5.70
2. < 5.70

Would you mind listing pIC50 for each of the following compounds?
1. Cc1cc([C@H](C)Nc2ccccc2C(=O)O)c2nc(-c3cc(C(N)=O)c4[nH]ccc4c3)cc(=O)n2c1
2. Cc1cc([C@H](C)Nc2ccccc2C(=O)O)c2nc(-c3cc4c(N)nn(C)c4cc3C)cc(=O)n2c1
3. COc1ccc(-c2nc3c([C@@H](C)Nc4ccccc4C(=O)O)cc(C)cn3c(=O)c2C)cc1
4. Cc1cc([C@@H](C)Nc2ccccc2S(N)(=O)=O)c2nc(-c3ccnc(C4CC4)c3)c(C)c(=O)n2c1
5. Cc1cc([C@@H](C)Nc2ccccc2C(=O)O)c2nc(N3C[C@@H](C)C(F)(F)[C@@H](C)C3)cc(=O)n2c1 (single isomer, unassigned)
6. Cc1cc([C@@H](C)Nc2ccccc2-c2ccnnc2)c2nc(-c3ccc4c(C)nn(C5CC5)c4c3)c(C)c(=O)n2c1

Resp:
["< 5.70", "< 5.70", "> 7.00", "< 5.70", "> 7.00", "< 5.70"]

Would you mind listing pIC50 for each of the following compounds?
1. Cc1cc(C(C)Nc2ccccc2C(=O)O)c2nc(N3CC4(CCOCC4)C3)c(C)c(=O)n2c1 (centres unmarked)
2. Cc1cc([C@@H](C)Nc2ccccc2S(N)(=O)=O)c2nc(N3Cc4ccccc4C3)c(C)c(=O)n2c1 (single isomer, unassigned)
3. C=C(C)N1CCC([C@@H]2C[C@@H]3CN(c4cc(=O)n5cc(C)cc([C@H](C)Nc6ccccc6C(=O)O)c5n4)C[C@@H]3C2)CC1
4. Cc1cc(C(C)NC2CCN(S(=O)(=O)N(C)C)C2)c2nc(N3Cc4ccccc4C3)cc(=O)n2c1 (centres unmarked)

Resp:
["6.30 to 7.00", "> 7.00", "< 5.70", "< 5.70"]

Would you mind listing pIC50 for each of the following compounds?
1. Cc1cc([C@H](C)Nc2ccccc2S(N)(=O)=O)c2nc([C@@H]3CCCOC3)c(C)c(=O)n2c1
2. Cc1cc([C@H](C)Nc2ccccc2C(=O)O)c2nc(-c3ccc(F)c(C#N)c3)c(C)c(=O)n2c1
3. Cc1cc([C@H](C)Nc2ccccc2C(=O)O)c2nc(N3CCC(C)(C)CC3)cc(=O)n2c1

Resp:
1: > 7.00; 2: 5.70 to 6.30; 3: < 5.70
